Below: a set of entries, each annotated with reported pIC50.
assaySystem: recombinant human cannabinoid receptor CB2 (Homo sapiens)
Construct: (cDNA clone) CNR0200000
Sequence (P34972 whole entry): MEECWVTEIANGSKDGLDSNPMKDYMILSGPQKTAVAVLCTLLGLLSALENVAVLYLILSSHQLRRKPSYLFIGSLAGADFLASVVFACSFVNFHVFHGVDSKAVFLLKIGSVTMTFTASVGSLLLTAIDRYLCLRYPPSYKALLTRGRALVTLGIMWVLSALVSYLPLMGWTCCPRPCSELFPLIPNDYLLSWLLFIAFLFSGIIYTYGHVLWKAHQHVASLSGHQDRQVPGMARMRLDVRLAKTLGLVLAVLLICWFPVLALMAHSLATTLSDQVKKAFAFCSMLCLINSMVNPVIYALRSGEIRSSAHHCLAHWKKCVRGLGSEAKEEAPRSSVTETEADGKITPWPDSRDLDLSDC
measurementNotes: Cannabinoid receptor radioligand binding assay, [3H]-CP 55,940 displacement, hCB2
pIC50: −log10 of the molar value.
assayReadout: pIC50

* Cc1cc2cc(C(=O)c3ccc(N(C)C(=O)OC(C)(C)C)cc3)sc2n1CCN1CCOCC1 [Compound 132] | 5.00 to 6.00
* Cc1cc2cc(C(=O)c3ccc(F)cc3Cl)sc2n1CCN1CCOCC1 [Compound 64] | > 7.00
* COc1ccc(C(=O)c2cc3cc(C)n(CCCNS(C)(=O)=O)c3s2)c(F)c1 [Compound 87] | 6.00 to 7.00
* Cc1cc2cc(C(=O)c3cccc(Cl)c3Cl)sc2n1CCN1CCCC1 [Compound 28] | > 7.00
* Cc1cc2cc(C(=O)c3ccc(OC(F)(F)F)cc3)sc2n1CCN1CCOCC1 [Compound 65] | 6.00 to 7.00
* COc1ccc(C(=O)c2cc3cc(C)n(CCN4CCOCC4)c3s2)c(C)n1 [Compound 136] | > 7.00
* CCS(=O)(=O)n1c(C)cc2cc(C(=O)c3ccccc3Cl)sc21 [Compound 42] | 6.00 to 7.00
* Cc1ccc(C(=O)c2cc3cc(C)n(CCN4CCOCC4)c3s2)c(F)c1 [Compound 80] | 6.00 to 7.00
* Cc1cc2cc(C(=O)c3cccc(Cl)c3)sc2n1CCN1CCOCC1 [Compound 4] | 6.00 to 7.00
* COc1ccc(C(=O)c2cc3cc(C)n(S(=O)(=O)N4CCOCC4)c3s2)cc1 [Compound 53] | > 7.00
* COc1ccc(C(=O)c2cc3cc(C)n(CCN4CCOC4=O)c3s2)cc1 [Compound 50] | 5.00 to 6.00
* COc1cc(F)ccc1C(=O)c1cc2cc(C)n(CCN3CCOCC3)c2s1 [Compound 133] | > 7.00
* COc1ccc(C(=O)c2cc3cc(C)n(CCN4CCOCC4)c3s2)c(OC)c1 [Compound 120] | > 7.00
* Cc1cc2cc(C(=O)c3ccc(OC(C)C)cc3)sc2n1CCN1CCOCC1 [Compound 111] | 6.00 to 7.00
* Cc1cc2cc(C(=O)c3ccc(Cl)cc3)sc2n1CCN1CCOCC1 [Compound 6] | 6.00 to 7.00
* COc1ccc(C(=O)c2cc3cc(C)n(CC4CCOCC4)c3s2)cc1 [Compound 62] | > 7.00
* COc1ccccc1C(=O)c1cc2cc(C)n(CCN3CCOCC3)c2s1 [Compound 13] | > 7.00
* Cc1ccccc1C(=O)c1cc2cc(C)n(CCN3CCOCC3)c2s1 [Compound 12] | > 7.00
* Cc1cc2cc(C(=O)c3cccc(Cl)c3Cl)sc2n1S(=O)(=O)CC1CCOCC1 [Compound 46] | > 7.00
* Cc1cc2cc(C(=O)c3ccc(C(F)(F)F)cc3)sc2n1CCN1CCOCC1 [Compound 60] | 5.00 to 6.00
* COc1ccc(C(=O)c2cc3cc(C)n(CC4CCC(F)(F)CC4)c3s2)cn1 [Compound 170] | 6.00 to 7.00
* COc1ccc(C(C)(O)c2cc3cc(C)n(CCN4CCOCC4)c3s2)cc1 (stereo not drawn) [Compound 101] | 6.00 to 7.00
* Cc1cc2cc(C(=O)c3ccc(C#N)cc3)sc2n1CCN1CCOCC1 [Compound 129] | 6.00 to 7.00
* Cc1cc2cc(C(=O)c3ccc(F)cc3)sc2n1CCN1CCOCC1 [Compound 54] | 6.00 to 7.00
* COc1ccc(C(=O)c2cc3cc(C)n(CCN4CCOCC4)c3s2)cc1 [Compound 36] | > 7.00
* Cc1cc2cc(C(=O)c3cccc(Cl)c3Cl)sc2n1CC(=O)N1CCOCC1 [Compound 22] | 5.00 to 6.00
* COc1ccc(C(=O)c2cc3cc(C)n(CCCNS(C)(=O)=O)c3s2)c(C)c1 [Compound 96] | > 7.00
* Cc1cc2cc(C(=O)c3ccccc3)sc2n1CCN1CCOCC1 [Compound 7] | 6.00 to 7.00
* Cc1cc2cc(C(=O)c3ccc4c(c3)OCO4)sc2n1CCN1CCOCC1 [Compound 106] | 6.00 to 7.00
* Cc1ccc(C(=O)c2cc3cc(C)n(CCN4CCOCC4)c3s2)c(Cl)c1 [Compound 86] | > 7.00
* Cc1cc2cc(C(=O)c3cccc(Cl)c3Cl)sc2n1S(=O)(=O)N(C)C [Compound 41] | > 7.00
* COc1ccc(C(=O)c2cc3cc(C)n(S(=O)(=O)N(C)C)c3s2)cc1 [Compound 51] | > 7.00
* COc1ccc(C(=O)c2cc3cc(C)n(CCN4CCOCC4)c3s2)c(Cl)n1 [Compound 137] | > 7.00
* COc1ccc(C(=O)c2cc3cc(C)n(S(=O)(=O)N(C)C)c3s2)cn1 [Compound 113] | > 7.00
* COc1ccc(C(c2cc3cc(C)n(CCN4CCOCC4)c3s2)C(F)(F)F)cc1 (stereo not drawn) [Compound 141] | 6.00 to 7.00
* Cc1cc2cc(C(=O)c3cccnc3)sc2n1CCN1CCOCC1 [Compound 14] | 5.00 to 6.00
